Target: T1, biotinylated hTRPV2 (hTRPV2 full-length expression vector with Myc-Biotinylation-His tag, expressed in HEK293 … (human, UniProt Q9Y5S1 1-764, biotinylated on the tag (Myc-Biotin-His tag)))
T1 construct: also called biotinylated hTRPV2-expressing HEK293 cells; not shown: Myc-Biotinylation-His tag
T1 sequence: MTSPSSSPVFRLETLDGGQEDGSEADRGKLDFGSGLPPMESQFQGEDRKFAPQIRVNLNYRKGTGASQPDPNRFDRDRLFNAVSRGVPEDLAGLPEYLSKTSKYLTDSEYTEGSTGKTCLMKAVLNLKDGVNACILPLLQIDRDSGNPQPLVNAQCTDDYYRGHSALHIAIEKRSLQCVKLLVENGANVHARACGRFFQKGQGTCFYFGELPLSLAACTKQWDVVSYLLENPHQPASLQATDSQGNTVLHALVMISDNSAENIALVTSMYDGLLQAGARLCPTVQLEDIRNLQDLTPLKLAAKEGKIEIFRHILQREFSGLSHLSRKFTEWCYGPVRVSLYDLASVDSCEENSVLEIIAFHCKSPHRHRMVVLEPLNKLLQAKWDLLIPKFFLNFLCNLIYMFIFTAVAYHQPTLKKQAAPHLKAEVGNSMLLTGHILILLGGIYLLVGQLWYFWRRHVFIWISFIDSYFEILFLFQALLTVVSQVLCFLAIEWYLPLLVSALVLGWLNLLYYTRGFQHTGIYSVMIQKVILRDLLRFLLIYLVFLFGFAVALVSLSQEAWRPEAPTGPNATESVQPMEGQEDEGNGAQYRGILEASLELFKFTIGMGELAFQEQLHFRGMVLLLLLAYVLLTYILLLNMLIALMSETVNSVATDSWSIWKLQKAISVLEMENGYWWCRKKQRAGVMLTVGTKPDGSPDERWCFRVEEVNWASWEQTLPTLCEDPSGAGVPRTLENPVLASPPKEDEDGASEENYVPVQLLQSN
Test: flow cytometry on hTRPV2-expressing 293 cells, purified IgG

Binder	binding result
humanized mAb002 antibody (VH16+VL1) (antibody, V domains shown, Full-length human IgG made in Expi293F cells) VH: QVQLQESGPGLVAPSQTLSLTCTVSGFSLTSFGIHWIRQPPGKGLEWIGVIWSGGITHYNSALMSRVSISKDTSKNQVFLKLSSVTAADTAMYYCAKLYSHPHAMDYWGQGTLVTVSS VL: DIVMTQSPLSLPVTPGEPASISCRSSKSLLHSNGITYLYWYLQKPGQSPQLLIYRMSNLASGVPDRFSGSGSGTDFTLKISRVEAEDVGVYYCMQHLEYPLTFGGGTKLEIK	binds
humanized mAb002 antibody (VH15+VL1) (antibody, V domains shown, Full-length human IgG made in Expi293F cells) VH: QVQLQESGPGLVKPSQSLSLTCTVSGFSLTSFGIHWIRQPPGKGLEWIGVIWSGGITHYNSALMSRVSISKDTSKNQVSLKLSSVTAADTAMYYCAKLYSHPHAMDYWGQGTLVTVSS VL: DIVMTQSPLSLPVTPGEPASISCRSSKSLLHSNGITYLYWYLQKPGQSPQLLIYRMSNLASGVPDRFSGSGSGTDFTLKISRVEAEDVGVYYCMQHLEYPLTFGGGTKLEIK	binds
